# System: FAP1 (Homo sapiens, UniProt Q12923)
# Sequence (Q12923 2163-2477): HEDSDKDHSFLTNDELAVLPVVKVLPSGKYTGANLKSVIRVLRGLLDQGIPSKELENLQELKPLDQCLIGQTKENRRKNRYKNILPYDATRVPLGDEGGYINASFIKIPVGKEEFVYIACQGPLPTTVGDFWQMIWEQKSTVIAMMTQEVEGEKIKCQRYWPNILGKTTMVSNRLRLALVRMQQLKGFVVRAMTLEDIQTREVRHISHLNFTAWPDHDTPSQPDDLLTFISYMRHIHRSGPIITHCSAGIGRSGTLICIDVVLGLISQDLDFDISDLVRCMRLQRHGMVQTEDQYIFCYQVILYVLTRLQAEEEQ
Reported IC50 is given for each of the following molecules.
Answer format: numeric, µM implied, no suffix.

Cn1cc(-c2ccc(NC(=O)C(=O)Nc3ccc(-c4cc5cc(F)c(-c6noc(=O)[nH]6)cc5n4C4CCC4)cc3)cc2)cn1 [Example 123]: 7.3

Challenge: Request body: readout IC50, system FAP1 (Homo sapiens, UniProt Q12923), query O=C(Nc1ccc(-c2cc3cc(F)c(-c4nnn[nH]4)cc3n2C2CCC2)cc1)C(=O)Nc1ccc(N2CCOCC2)cc1 [Example 47] . Return the value.
Response given: 1.53

Challenge: Field: IC50 (FAP1 (Homo sapiens, UniProt Q12923)). Entry: O=C(Nc1ccc(-c2ccsc2)cc1)C(=O)Nc1ccc(-c2cc3ccc(-c4nnn[nH]4)nc3n2C2CCC2)cc1 [Example 129]
Response given: 4.2

Challenge: Report IC50 for O=C(Nc1ccc(-c2oc3cc(F)c(-c4nnn[nH]4)cc3c2C2CCC2)cc1)C(=O)Nc1ccc(N2CCC3(CCOC3)CC2)cc1 [Example 125] tested on FAP1 (Homo sapiens, UniProt Q12923).
Response given: 7.44

Challenge: GET /values?readout=IC50&system=FAP1 (Homo sapiens, UniProt Q12923)&item= O=C(Nc1ccc(-c2ccsc2)cc1)C(=O)Nc1ccc(-c2cc3cc(F)c(-c4nnn[nH]4)nc3n2C2CCC2)cc1 [Example 132]
Response given: 13.5
